Assay: in vivo
Conditions: male, Swiss Albino, mouse, po, 10 mg/kg
readoutKind: bioavailability

- compound: "CC(C)(C)n1nc(Oc2cccc(Cl)c2)c2c(N)ncnc21 [Compound 2]"
  assayValue: "25 to 30%"
